Reference source: ChEMBL document CHEMBL1909046

# ASSAY_OVERVIEW: DRUGMATRIX: Glutamate, AMPA radioligand binding (ligand: [3H] AMPA)
# Assay type: cell membranes, Rattus norvegicus, Wistar, Cerebral cortex, Membrane
# COND: Not Active = under 50% inhibition at 10 µM
ASSAY_ENDPOINT: IC50

Before answering, review these 4 worked examples.
COc1cccc2c1C(=O)c1c(O)c3c(c(O)c1C2=O)C[C@@](O)(C(=O)CO)C[C@@H]3O[C@H]1C[C@H](N)[C@H](O)[C@H](C)O1 ... Not Active
NC(=O)NO [HYDROXYUREA] ... Not Active
Cc1ncc([N+](=O)[O-])n1CCO ... Not Active
CC(C)CC(N(C)C)C1(c2ccc(Cl)cc2)CCC1 (stereo not given) ... Not Active

API: the following record is the query input.
Data request: Tell me measured IC50 for CN(C)/N=N/c1[nH]cnc1C(N)=O please.
Data returned: Not Active

###

# STUDY_SYSTEM: 5-hydroxytryptamine receptor 2C (Homo sapiens)
# Sequence (P28335 whole entry): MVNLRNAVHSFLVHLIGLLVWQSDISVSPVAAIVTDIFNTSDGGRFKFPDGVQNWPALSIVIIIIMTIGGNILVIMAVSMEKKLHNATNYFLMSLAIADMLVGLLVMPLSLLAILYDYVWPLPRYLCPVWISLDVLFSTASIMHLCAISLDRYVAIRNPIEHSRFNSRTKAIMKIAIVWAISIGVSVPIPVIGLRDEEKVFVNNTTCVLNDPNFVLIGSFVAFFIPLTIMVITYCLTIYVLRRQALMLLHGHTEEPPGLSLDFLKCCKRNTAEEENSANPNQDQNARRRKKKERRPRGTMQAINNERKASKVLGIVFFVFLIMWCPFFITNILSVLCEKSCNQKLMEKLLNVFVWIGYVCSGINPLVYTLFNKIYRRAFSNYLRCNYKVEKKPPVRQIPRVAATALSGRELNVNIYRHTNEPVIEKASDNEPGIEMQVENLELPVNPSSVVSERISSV
# ASSAY_OVERVIEW: DRUGMATRIX: Serotonin (5-Hydroxytryptamine) 5-HT2C radioligand binding (ligand: [3H] Mesulergine)
# Format: cell membranes, CHO-K1, Membrane
# COND: Not Active = under 50% inhibition at 10 µM; read-out: Ki
ASSAY_ENDPOINT: Ki

Cc1cc2cc3c(C)cc(=O)oc3c(C)c2o1 [TRIOXSALEN] ... 1230 nM

Data request: Enter Ki (test system 5-hydroxytryptamine receptor 2C (Homo sapiens)) for CN1CCC(=C2c3ccccc3C=Cc3ccccc32)CC1 [CYPROHEPTADINE]
Data returned: 1.28 nM

###

# STUDY_SYSTEM: Receptor-type tyrosine-protein phosphatase C (Homo sapiens, UniProt P08575); further: in other assays of this panel Not Active means under 50% inhibition at 10 µM
# Sequence (P08575 whole entry): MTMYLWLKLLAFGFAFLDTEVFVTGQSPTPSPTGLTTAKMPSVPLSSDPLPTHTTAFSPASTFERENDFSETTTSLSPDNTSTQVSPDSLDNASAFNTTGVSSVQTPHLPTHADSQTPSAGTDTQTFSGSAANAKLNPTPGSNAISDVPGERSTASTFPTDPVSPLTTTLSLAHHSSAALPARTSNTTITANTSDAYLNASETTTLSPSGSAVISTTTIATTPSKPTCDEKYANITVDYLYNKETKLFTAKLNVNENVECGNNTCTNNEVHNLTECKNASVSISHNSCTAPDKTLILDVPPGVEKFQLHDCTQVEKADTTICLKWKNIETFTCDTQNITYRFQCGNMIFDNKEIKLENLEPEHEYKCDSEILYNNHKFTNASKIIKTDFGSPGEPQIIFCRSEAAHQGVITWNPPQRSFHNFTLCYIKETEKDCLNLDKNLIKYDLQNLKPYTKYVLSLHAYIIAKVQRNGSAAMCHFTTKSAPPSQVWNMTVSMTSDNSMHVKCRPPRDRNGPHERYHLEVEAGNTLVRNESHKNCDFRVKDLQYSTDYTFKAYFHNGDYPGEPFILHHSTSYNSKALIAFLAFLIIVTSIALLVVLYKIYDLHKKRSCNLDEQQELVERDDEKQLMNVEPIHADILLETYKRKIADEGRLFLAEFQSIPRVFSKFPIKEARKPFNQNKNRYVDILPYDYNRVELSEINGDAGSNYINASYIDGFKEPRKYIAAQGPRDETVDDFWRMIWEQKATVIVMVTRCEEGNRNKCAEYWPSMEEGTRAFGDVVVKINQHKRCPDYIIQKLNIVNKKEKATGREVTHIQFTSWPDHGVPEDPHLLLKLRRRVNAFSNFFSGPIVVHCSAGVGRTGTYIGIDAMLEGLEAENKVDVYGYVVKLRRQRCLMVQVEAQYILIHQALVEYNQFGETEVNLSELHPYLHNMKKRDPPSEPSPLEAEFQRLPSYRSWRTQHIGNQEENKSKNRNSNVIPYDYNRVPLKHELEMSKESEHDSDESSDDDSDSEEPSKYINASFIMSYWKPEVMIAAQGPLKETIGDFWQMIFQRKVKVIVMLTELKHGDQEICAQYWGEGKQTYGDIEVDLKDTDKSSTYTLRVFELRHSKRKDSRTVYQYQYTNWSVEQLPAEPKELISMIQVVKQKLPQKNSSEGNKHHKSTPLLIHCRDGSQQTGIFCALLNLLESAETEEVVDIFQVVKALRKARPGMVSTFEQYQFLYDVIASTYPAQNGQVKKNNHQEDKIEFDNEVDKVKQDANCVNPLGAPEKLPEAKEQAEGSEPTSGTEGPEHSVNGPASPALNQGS
# Design: species or system Escherichia coli
ASSAY_ENDPOINT: IC50

Before answering, review these 4 worked examples.
CCN(CC)CCOC(=O)c1ccc(N)cc1 [PROCAINE] ... Not Active
CC1(C)O[C@@H]2C[C@H]3[C@@H]4C[C@H](F)C5=CC(=O)C=C[C@]5(C)[C@@]4(F)[C@@H](O)C[C@]3(C)[C@]2(C(=O)CO)O1 [FLUOCINOLONE ACETONIDE] ... Not Active
COc1cc2c(c(OC)c1OC)-c1ccc(OC)c(=O)cc1[C@@H](NC(C)=O)CC2 [COLCHICINE] ... Not Active
N[C@H](CSC(=S)NCc1ccccc1)C(=O)O ... Not Active

API: the following record is the query input.
Data request: Enter IC50 (test system Receptor-type tyrosine-protein phosphatase C (Homo sapiens, UniProt P08575)) for C[C@]12CC[C@@H]3c4ccc(O)cc4CC[C@H]3[C@@H]1CC[C@@H]2O [ESTRADIOL]; further: in other assays of this panel Not Active means under 50% inhibition at 10 µM;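 further: inhibition of CD45 enzyme activity measured using DiFMUP as substrate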
Data returned: Not Active

###

# ASSAY_OVERVIEW: DRUGMATRIX: Atrial Natriuretic Factor (ANF) radioligand binding (ligand: [125I] ANF (rat))
# Assay type: cell membranes, Cavia porcellus, Dunkin-Hartley, Adrenal gland, Membrane
# COND: Not Active = under 50% inhibition at 10 µM
ASSAY_ENDPOINT: IC50

Before answering, review these 5 worked examples.
CC(C)Cc1ccc(C(C)C(=O)O)cc1 (stereo not given) ... Not Active
Cc1cc(=O)n(-c2ccccc2)n1C [ANTIPYRINE] ... Not Active
C[C@]12CC[C@@H]3c4ccc(OC(=O)c5ccccc5)cc4CC[C@H]3[C@@H]1CC[C@@H]2O [ESTRADIOL BENZOATE] ... Not Active
OC(CCN1CCCCC1)(c1ccccc1)C1CCCCC1 (stereo not given) ... Not Active
CN1C(=O)COc2c(C(=O)NC3CN4CCC3CC4)cc(Cl)cc21 (stereo not given) ... Not Active

Data request: Tell me measured IC50 for CCCN(CCC)C(=O)C(CCC(=O)O)NC(=O)c1ccccc1 (stereo not given) [PROGLUMIDE] please.
Data returned: Not Active

Data request: Tell me measured IC50 for C[C@@]12C(=O)OC(=O)[C@]1(C)[C@H]1CC[C@@H]2O1 please.
Data returned: Not Active

Data request: Tell me measured IC50 for CC(=O)N1CCN(c2ccc(OCC3COC(Cn4ccnc4)(c4ccc(Cl)cc4Cl)O3)cc2)CC1 (stereo not given) please.
Data returned: Not Active

Data request: Tell me measured IC50 for CC(=O)CC(c1ccccc1)c1c(O)c2ccccc2oc1=O (stereo not given) please.
Data returned: Not Active

Data request: Tell me measured IC50 for CCOC(=O)[C@H](CCc1ccccc1)N[C@H]1CCc2ccccc2N(CC(=O)O)C1=O please.
Data returned: Not Active

Data request: Tell me measured IC50 for CCCC(=O)Nc1ccc(OCC(O)CNC(C)C)c(C(C)=O)c1 (stereo not given) please.
Data returned: Not Active

Data request: Tell me measured IC50 for CC(=O)N[C@@H]1[C@H](Oc2c3cc4cc2Oc2ccc(cc2Cl)[C@@H](O[C@@H]2O[C@@H](CO)[C@@H](O)[C@H](O)[C@@H]2NC(C)=O)[C@@H]2NC(=O)[C@H](NC(=O)[C@@H]4NC(=O)[C@H]4NC(=O)[C@@H](Cc5ccc(c(Cl)c5)O3)NC(=O)[C@H](N)c3ccc(O)c(c3)Oc3cc(O)cc4c3)c3ccc(O)c(c3)-c3c(O[C@H]4O[C@H](CO)[C@@H](O)[C@@H](O)[C@@H]4O)cc(O)cc3[C@@H](C(=O)O)NC2=O)O[C@@H](CO)[C@@H](O)[C@@H]1O please.
Data returned: Not Active

Data request: Tell me measured IC50 for COc1ccccc1C(=O)N1CCC(Cc2ccccc2)CC1 please.
Data returned: Not Active

Data request: Tell me measured IC50 for C[C@@H]1C[C@@H]([C@H](O)CC2CC(=O)NC(=O)C2)C(=O)[C@@H](C)C1 [CYCLOHEXIMIDE] please.
Data returned: Not Active

Data request: Tell me measured IC50 for C=C1CC[C@H](O)C/C1=C/C=C1\CCC[C@]2(C)[C@@H]([C@H](C)CCCC(C)C)CC[C@@H]12 please.
Data returned: Not Active
